Protocol Notes: yeast display, Sf9 membrane polyspecificity reagent, FACS + sequencing; frameworks hold sequencing errors

[
  {
    "Query Sequence": "QVQLVESGGGLVQAGGSLRLSCAASGITFGWYAMGWYRQAPGKERELVAAISWSGGTTYYADSVKGRFTISRDNAKNTVYLQMNSLKPEDTAVYYCAATWYYPTVYAGNYWGQGTQVTVSS",
    "polyreactivity (PSR sort gate)": "high polyreactivity"
  },
  {
    "Query Sequence": "QVQLQESGGGQVLAGGSLRLSCAASGSISAQAYMGWDRQAPGKEREHVAGINYGDNTNYADSVKGRFTISRDNEHRVSADEQPVSGRYRGVLLRGFLELFYYYIYWGQGTQVNVSS",
    "polyreactivity (PSR sort gate)": "high polyreactivity"
  }
]

====

Protocol Notes: yeast display, Sf9 membrane polyspecificity reagent, FACS + sequencing; frameworks hold sequencing errors
Readout: polyreactivity (PSR sort gate)

[
  {
    "Query Sequence": "QVQLVESGGGLVQAGGSLRLSCAASGRIFQKNAMGWNIQAPGKERELVAVISWSDGSTNYADSVKGRFTISRDNAKNTVYLQMNSLKPEDTAVYYCNAAPLEGTLYDSWGQGTQVTVSS",
    "Experimental Result": "low polyreactivity"
  },
  {
    "Query Sequence": "QVQLLESGGGLVQARGSLRLSCAASGRILEGYAMGWYRPAPGKERELVAALSFSTTPTYYADSVKGRFTISRDNAKNTVYLQMYSLKPEDTAVDYCAADSQQSDYDYWGQGSQVTVSS",
    "Experimental Result": "high polyreactivity"
  },
  {
    "Query Sequence": "QVQLEESGGGLVQAGGSLRLSCDASGFTFAYYAMGWYRPAPGKEREFVAAITKGGGSTNYADSVKGRFTISRDNAKNTVYLQMNSLKPEDTAVYYCNADYFVWYIGRVFSRYGYWGLGTQVTVSS",
    "Experimental Result": "low polyreactivity"
  },
  {
    "Query Sequence": "QLQLVESGGGLVQAGGSLRLSCAASGSTFPWYTMGWYRQAPGKERELVAAITWNGVSTYYADSVKWRITISRDNAKNTVYFQMNSLKPEDTAVYYCATRIKRIGGFPYYYWGQGTQVTVSS",
    "Experimental Result": "high polyreactivity"
  },
  {
    "Query Sequence": "QVKLVESGGGLVQAGGSLRLTCAASGIIFSWYAMGWYRQAPGKERELVAAISWSGGRTYYADSVKGRFTISRDNAKNSFYLQMNSLKPEDTAVYYCAAERNLFSHWEARYFWGQGTQVTVSS",
    "Experimental Result": "high polyreactivity"
  }
]

====

Protocol Notes: yeast display, Sf9 membrane polyspecificity reagent, FACS + sequencing; frameworks hold sequencing errors

[
  {
    "Query Sequence": "QVQLVESGGGLVQAGGSLRLSCAASGRIFRYNAMGWYRQAPGKERELVADINSGGITNYADSVKGRFTISRDNAKNTVYFQKNSLKPEDTAVYYCNTATNLSCGYDSWGQGTQVTVSS",
    "polyreactivity (PSR sort gate)": "low polyreactivity"
  },
  {
    "Query Sequence": "QVQLVESGGGLVEAGGSLRLSCAASGIIFVYNAMGWSRKAPGKERELVADINWRGDGTYYSDSVKGRFTISPDNAKNTVYLQMNSLKPEDTAVYYCNAVRFRPNSHYRPVGYEYWGQGTQVTESS",
    "polyreactivity (PSR sort gate)": "low polyreactivity"
  }
]

====

Protocol Notes: yeast display, Sf9 membrane polyspecificity reagent, FACS + sequencing; frameworks hold sequencing errors

[
  {
    "Query Sequence": "QVQLVESGGALVQAGGSLRLSCAASGRIFASNGMGWYRQAPGKEREFVAAINRSGGSTYYADSVKGRFTISRDNAKNTVYLQMNSLKPEDTAVYYCNKDYLYSYLWGWKVYSYDYWGQGTQVTVSS",
    "polyreactivity (PSR sort gate)": "low polyreactivity"
  },
  {
    "Query Sequence": "QVQLVESGGGLVQAGGSLRLSCAASGYTFAYYTMGWYRQAPGKERELVAAINRSGGSTNYADSVKGRFTISRDNAKNTVYLQMNSLKPEDTAVYYCAADYFFRRGPGAVFIGRYGYWGQGTQVTVSS",
    "polyreactivity (PSR sort gate)": "high polyreactivity"
  },
  {
    "Query Sequence": "QVQLVESGGCLVQAGGRLRLSSAASGGTFTFYAMGWYRQAPGKERELVATINWSGGSTYYADSVKGRFTISRDNAKNTVYLQMNSLKPEDTAVYYCNAAWPYKSVEYWGQGTQVTVSS",
    "polyreactivity (PSR sort gate)": "low polyreactivity"
  },
  {
    "Query Sequence": "QVQLVESGGGLVQAGGSLRLSCAASGYTFRAYAMGWYRQAPGKEREYVAAISRSGGSTYYADSVKGRFTISRDNAKNTVYLQMNSLKPEDTAVYYCNKVYRWAGYDYWGQGSQVTVSS",
    "polyreactivity (PSR sort gate)": "high polyreactivity"
  },
  {
    "Query Sequence": "QVQLVESGGGLVQAGGSLRLSCAASRSIFYDYVMGWYRQAPGKEREFVAAISWGGDSTYYADSVKGRFTISRDNAKNTVYLQMISLKPEDTAVYYCNADYPWSVVGYDYWGQGTQVTVSS",
    "polyreactivity (PSR sort gate)": "low polyreactivity"
  }
]

====

Protocol Notes: yeast display, Sf9 membrane polyspecificity reagent, FACS + sequencing; frameworks hold sequencing errors

[
  {
    "Query Sequence": "QVQLVESGGGLVQAGGSLRLSCAASGRIFYSNAMGWYRQAPGKERELVAVIRRTGSTYYADSVKGRFTISRDNAKNTVYLQMNSLKPEDTAVYYCATRIPYGRGGNRYDYWGQGTQVTVSS",
    "polyreactivity (PSR sort gate)": "low polyreactivity"
  },
  {
    "Query Sequence": "QVQLVESGGGLVQAGGSLRLSCAPSGLIFYHYAMGWYRQAPGKERELVAGITRSGGSTYYADSVKGRFTISRDNAKNTVYLQMNSLKPEDTAVYYCAAKSLTTGKYGKYGYWGQGTQVTVSS",
    "polyreactivity (PSR sort gate)": "high polyreactivity"
  },
  {
    "Query Sequence": "QVQLVESGGGLVQAGGSLRLSCAASGRIFTYYAMGWYRQAPGKERELVAAISSGGSTYYADSGKGRFTISRDNAKNTVSLQMNSLKPEDTAVYYCAADTIYYFPYDYWGQGTQVTVSS",
    "polyreactivity (PSR sort gate)": "high polyreactivity"
  },
  {
    "Query Sequence": "QVQLVESGGGLVQAGGSLRLSCAASGYIFFGNAMGWYRQAPGKERELVAAIRRRGTSTYYADSVKGRFTISRDNAKNTVYLQMNSLKPEDTAVYYCAADVVRSNFYGTFLYDYDYCGQGTQVTVSS",
    "polyreactivity (PSR sort gate)": "low polyreactivity"
  },
  {
    "Query Sequence": "QVQLVESGGGLVQAGGSLRLSCAASGSTFYYYAMGWYSQAPGKERDLVAVISWGGGSTYYADSVKGRFTISRDNAKNTVYLQMNSLKPEDTAVYYCAAVYDAYQTTDEYDYWGQGTQVTVSS",
    "polyreactivity (PSR sort gate)": "low polyreactivity"
  },
  {
    "Query Sequence": "QVQLVESGGGLVQAGGSLRLSCAASGSIFWSYAMGWYRQAPGKEREFVASITGSGGTTTYADSVKGRFTISRDNAKNTVYLQMNSLKPEDTAVYYCNARLHGWYHVYYIYDYWGQGTQVTVSS",
    "polyreactivity (PSR sort gate)": "low polyreactivity"
  },
  {
    "Query Sequence": "QVQLVESGGGLVQAGGSLRLSCAASGFTFSSYAMGWYRQAPGKERELVAAINWSGGSTYYADSVKGRFTISRDNAKNTVYLQMNSLKPEDTAVYYCATSVKDRYWVDYWGQGTQVTVSS",
    "polyreactivity (PSR sort gate)": "high polyreactivity"
  },
  {
    "Query Sequence": "QVQLVESGGGLVQAGGSLRLSSAASGRTFYYNAMGWYRQAPGKEREFVAVMTSSGGSTYYADSVKGRFTISRDNAKNTVYLQMNSLKPEDTAVYYSAASNTEQQLVVLIEVYYTRYDYWGQGTQETVSS",
    "polyreactivity (PSR sort gate)": "low polyreactivity"
  },
  {
    "Query Sequence": "QVQLVESGGGLVQAGGSLRLSCAASGRIVANAMGWYRQAPGKERELVAAISWSGGRTFYADSVKGRFTISRDNAKNTVYLQMNSLKPEDSAVYYCNARGPVYARYDYCGQGTQVTVSS",
    "polyreactivity (PSR sort gate)": "low polyreactivity"
  },
  {
    "Query Sequence": "QVQLVESGGGLVQAGCSLRLICAAAGIIFSSYAMGWYRQAPGKERELVAAISWNGGRTYYADSVKGRFTISRDNAKNTVYLQMNSLKPEDTAVYYCAAPHSVPDLHSGDYWGQGTQVTVSS",
    "polyreactivity (PSR sort gate)": "low polyreactivity"
  },
  {
    "Query Sequence": "QVQLVESGGGLVQAGGSLRLSCAASGRTFTHNTMGWYRQAPGKERELVAAISRSGASTYYADSVKGRFTISRDNAKNTVYLQMNSLKPEDTAVYYCNAYSRPHFGYVVGTKSRHGYWGQGTQVTVSS",
    "polyreactivity (PSR sort gate)": "high polyreactivity"
  }
]
